All values here come from the supplement of paper PMC10899765.

test system: MCF10A; test: 5+ nucleoli phenotype percent effect (relative to siNT 0% and siKIF11 100%); higher = more cells with five or more nucleoli; settings: 20 nM; 72 h
Measured Endpoint: 5+ nucleoli phenotype percent effect (%)
Hi! Could you send only the number? It should be in %, unit omitted.

Worked examples, 8 sequences total:
Sequence String: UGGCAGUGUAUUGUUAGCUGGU [hsa-miR-449a]
5+ nucleoli phenotype percent effect, %: -16.3
--
Sequence String: UCUGGCUCCGUGUCUUCACUCCC [hsa-miR-149-5p]
5+ nucleoli phenotype percent effect, %: -2.69
--
Sequence String: UUGAACUGUUAAGAACCACUGGA [hsa-miR-203b-3p]
5+ nucleoli phenotype percent effect, %: -29.1
--
Sequence String: AGUUGCCAGGGCUGCCUUUGGU [hsa-miR-6501-5p]
5+ nucleoli phenotype percent effect, %: -26.4
--
Sequence String: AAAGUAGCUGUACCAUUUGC [hsa-miR-562]
5+ nucleoli phenotype percent effect, %: 57
--
Sequence String: AAUAGCUCAGAAUGUCAGUUCUG [hsa-miR-7705]
5+ nucleoli phenotype percent effect, %: -21.4
--
Sequence String: CGGCGCCCGUGUCUCCUCCAG [hsa-miR-6789-3p]
5+ nucleoli phenotype percent effect, %: 32.6
--
Sequence String: AAGGGAAGAUGGUGACCAC [hsa-miR-9500]
5+ nucleoli phenotype percent effect, %: -15.3

Record GAGGCUGAGCUGAGGAG [hsa-miR-4478] . Reported 5+ nucleoli phenotype percent effect: -17.6

// 5+ nucleoli phenotype percent effect value for UGAGGUGGUAGGAUGUAGA [hsa-miR-6134] : -36

According to the records, this sequence UUUCCCUUUCCAUCCUGGCAG [hsa-miR-5006-3p] displays 5+ nucleoli phenotype percent effect of 18.5

For this sequence ( AGACUUCCCAUUUGAAGGUGGC [hsa-miR-617] ), measured 5+ nucleoli phenotype percent effect is -37.8

CUCGCCCUGUCUCCCGCUAG [hsa-miR-6726-3p] yielded 5+ nucleoli phenotype percent effect of 66.4

# sequence AGCGAGGUUGCCCUUUGUAUAU [hsa-miR-381-5p] ; its 5+ nucleoli phenotype percent effect = 0.715
